test: logP determination by HPLC on a reversed-phase column (C18); type: physicochemical; details: HPLC-MS method a), reversed-phase column (C18); Table I-T3
assay readout: logP^a)
Write the number on its own, no unit after it.

Record excerpt, results attached:
INSERT INTO measurements (compound_structure, measured) VALUES
  ('Cc1cc(C(F)(C(F)(F)F)C(F)(F)F)cc(C)c1-n1cc(-c2cncc(C(=O)NC3CC3)c2)cn1', 3.4),
  ('Cc1cc(C(F)(C(F)(F)F)C(F)(F)F)cc(C)c1-n1cc(-c2cc(C(=O)NC3(C#N)CC3)cc(C(F)(F)F)c2)cn1', 4.7),
  ('CCc1cc(C(F)(C(F)(F)F)C(F)(F)F)cc(C)c1-n1cc(-c2ccc(Cl)c(C(=O)NC3CSC3)c2)cn1', 5.0),
  ('CCc1cc(C(F)(C(F)(F)F)C(F)(F)F)ccc1-n1cc(-c2ccc(Cl)c(C(=O)NCC(F)(F)F)c2)cn1', 4.9);

Pending compound:
Can you share its logP^a)? I mean this compound: "CCc1cc(C(F)(F)C(F)(F)F)cc(C)c1-n1cc(-c2ccc(Cl)c(C(=O)NC3CSC3)c2)cn1" 4.6

###

experiment: logP determination by HPLC on a reversed-phase column (C18); type: physicochemical; conditions: HPLC-MS method a)
Form field: logP^a) (one value per entry).
Answer with a bare number; do not write a unit.

Take a look at these entries with their results.
INSERT INTO measurements (compound_structure, measured) VALUES
  ('CCc1cc(C(F)(C(F)(F)F)C(F)(F)F)cc(Cl)c1-n1cc(-c2ccc(Cl)c(C(=O)NC3CC3)c2)cn1', 4.6),
  ('Cc1cc(C(F)(C(F)(F)F)C(F)(F)F)cc(C)c1-n1cc(-c2cnc(C)c(C(=O)NC3(C#N)CC3)c2)cn1', 3.4),
  ('Cc1cc(C(F)(C(F)(F)F)C(F)(F)F)cc(C)c1-n1cc(-c2cccc(C(=O)NC3(C#N)CC3)c2F)cn1', 4.2),
  ('CCc1cc(C(F)(C(F)(F)F)C(F)(F)F)cc(C)c1-n1cc(-c2ccc(Cl)c(C(=O)NC3CSC3)c2)cn1', 5.0),
  ('CCc1cc(C(F)(F)C(F)(F)F)cc(C)c1-n1cc(-c2ccc(Cl)c(C(=O)NCC(F)(F)F)c2)cn1', 4.0);

Report logP^a) for "Cc1cc(C(F)(C(F)(F)F)C(F)(F)F)cc(C)c1-n1cc(-c2cc(C(=O)NC3CC3)ccc2F)cn1" please. 4.5

Fill in the blank: the reported logP^a) of "CCc1cc(C(F)(C(F)(F)F)C(F)(F)F)ccc1-n1cc(-c2cncc(C(=O)NC3CC3)c2)cn1" is ____. 3.3

###

test system: Myzus persicae; experiment: Myzus persicae - spray test; type: in vivo; details: application rate 100 g/ha; Chinese cabbage leaf discs; after 6 days
Entries annotated with measured efficacy
Report the value in % with no unit label.

INSERT INTO measurements (compound, assay_readout, measured) VALUES
  ('CCc1cc(C(F)(C(F)(F)F)C(F)(F)F)ccc1-n1cc(-c2ccc(Cl)c(C(=O)NC3(C#N)CC3)c2)cn1 [I-T3-38]', 'efficacy', 90),
  ('Cc1ncc(-c2cnn(-c3c(Cl)cc(C(F)(F)F)cc3Cl)c2)cc1C(=O)NC1CC1 [I-T3-127]', 'efficacy', 100),
  ('N#CC1(NC(=O)c2cc(-c3cnn(-c4c(Br)cc(C(F)(C(F)(F)F)C(F)(F)F)cc4C(F)(F)F)c3)cnc2Cl)CC1 [I-T3-165]', 'efficacy', 100),
  ('N#CC1(NC(=O)c2cc(-c3cnn(-c4c(Cl)cc(C(F)(F)F)cc4Cl)c3)cnc2Cl)CC1 [I-T3-95]', 'efficacy', 90),
  ('Cc1ncc(-c2cnn(-c3c(Cl)cc(C(F)(C(F)(F)F)C(F)(F)F)cc3C(F)(F)F)c2)cc1C(=O)N(C)C1CC1 [I-T3-130]', 'efficacy', 100);

Request: efficacy, test system Myzus persicae, entry Cc1cc(C(F)(C(F)(F)F)C(F)(F)F)cc(C)c1-c1cc(-c2ccc(Cl)c(C(=O)NC3CC3)c2)on1 [I-T22-1] 100

For Myzus persicae, provide efficacy of O=C(NC1CC1)c1cc(-c2cnn(-c3c(Cl)cc(C(F)(F)F)c(F)c3Cl)c2)ccc1Cl [I-T3-184] please. 100

Provide value of efficacy for this record tested with Myzus persicae: Cc1cc(C(F)(C(F)(F)F)C(F)(F)F)cc(C)c1-c1cnn(-c2cnc(Cl)c(C(=O)NC3CC3)c2)c1 [I-T4-3] 90

What efficacy appears in the records for this compound with Myzus persicae? CCc1cc(C(F)(F)C(F)(F)F)cc(C)c1-n1cc(-c2ccc(Cl)c(C(=O)NC3(C#N)CC3)c2)cn1 [I-T3-80] 90

Test system Myzus persicae; read-out efficacy; what value for O=C(NC1CC1)c1cc(-c2cnn(-c3c(Br)cc(C(F)(C(F)(F)F)C(F)(F)F)cc3C(F)(F)F)c2)cnc1Cl [I-T3-160] ? 90

GET /values?readout=efficacy&system=Myzus persicae&item= N#CC1(NC(=O)c2cc(-c3cnn(-c4ccc(C(F)(C(F)(F)F)C(F)(F)F)cc4C(F)(F)F)c3)ccc2Cl)CC1 [I-T3-53] 90
